- assay-target: ROR1 (antigen of the KD determination and of the Octet dissociation measurement) (UniProt Q01973 30-403, limits assumed)
- Sequence (Q01973 30-403 limits assumed): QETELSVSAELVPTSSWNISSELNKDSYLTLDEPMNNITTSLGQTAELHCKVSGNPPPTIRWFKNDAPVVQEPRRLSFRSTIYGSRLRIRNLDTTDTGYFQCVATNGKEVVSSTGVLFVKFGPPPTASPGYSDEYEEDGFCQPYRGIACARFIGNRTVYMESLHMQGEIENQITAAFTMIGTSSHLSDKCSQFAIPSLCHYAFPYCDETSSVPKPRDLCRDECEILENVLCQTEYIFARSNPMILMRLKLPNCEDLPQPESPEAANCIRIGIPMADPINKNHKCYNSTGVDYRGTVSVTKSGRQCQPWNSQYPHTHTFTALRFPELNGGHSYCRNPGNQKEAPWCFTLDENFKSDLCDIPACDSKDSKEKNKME
- assay-notes: method not stated (conventional procedures)
Threshold check on Kd: strictly below 0.5 nM is T; on or above 0.5 nM is F.

binder: PR001357 (antibody, human IgG1, kappa, V domains shown, fully human IgG1, kappa) VH: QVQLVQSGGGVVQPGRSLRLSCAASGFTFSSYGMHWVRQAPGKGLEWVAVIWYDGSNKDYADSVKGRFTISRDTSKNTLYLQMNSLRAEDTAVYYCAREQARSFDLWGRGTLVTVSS VL: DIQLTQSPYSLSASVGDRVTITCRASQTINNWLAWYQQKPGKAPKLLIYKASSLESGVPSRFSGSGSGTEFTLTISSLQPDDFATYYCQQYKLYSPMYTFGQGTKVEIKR
category: T
//
binder: PR001355 (antibody, human IgG1, kappa, V domains shown, fully human IgG1, kappa) VH: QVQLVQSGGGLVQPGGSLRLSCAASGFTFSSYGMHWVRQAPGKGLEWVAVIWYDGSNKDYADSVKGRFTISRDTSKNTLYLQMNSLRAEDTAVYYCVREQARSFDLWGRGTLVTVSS VL: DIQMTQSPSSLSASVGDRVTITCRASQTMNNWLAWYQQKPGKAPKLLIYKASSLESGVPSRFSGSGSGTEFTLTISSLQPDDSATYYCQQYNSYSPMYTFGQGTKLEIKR
category: F
//
binder: PR001360 (antibody, human IgG1, kappa, V domains shown, fully human IgG1, kappa) VH: QVQLVESGGGVVQPGRSLRLSCAASGFTFSSYGMHWVRQAPGKGLEWVAVIWYDGSDKDSVDSVKGRFTISRDDSKNTLYLQMNSLRAEDTAVYYCAREQARSFDLWGRGTLVTVSS VL: DIQMTQSPSTLSASVGDRVTITCRASQTINNWLAWYQQKPGKAPKLLIYKASSLESGVPSRFSGSGSGTEFTLTISSLQPDDFATYYCQQYNIYSPMYTFGQGTKVEIKR
category: F
//
binder: Positive control antibody (PR000374) (antibody, human IgG1, kappa, V domains shown) VH: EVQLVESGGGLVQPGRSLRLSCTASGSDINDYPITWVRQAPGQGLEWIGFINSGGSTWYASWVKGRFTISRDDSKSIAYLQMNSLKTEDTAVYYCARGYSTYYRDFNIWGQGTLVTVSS VL: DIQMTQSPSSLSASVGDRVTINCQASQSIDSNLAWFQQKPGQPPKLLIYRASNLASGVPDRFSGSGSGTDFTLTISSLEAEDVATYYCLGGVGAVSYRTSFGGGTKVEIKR
category: T
//
binder: PR001370 (antibody, V domains shown, fully human IgG1, kappa) VH: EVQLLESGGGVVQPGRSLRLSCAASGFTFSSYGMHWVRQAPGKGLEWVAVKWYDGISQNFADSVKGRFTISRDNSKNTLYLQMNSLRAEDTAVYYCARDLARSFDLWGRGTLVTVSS VL: DIVMTQSPSTLSASVGDRVTITCRASQSINNWLAWYQQKPGKAPKLLIYKASSLESGVPSRFSGSGSGTEFTLTISSLQPDDFATYYCQQYNSYSPMYTFGQGTKVDIKR
category: F
